assay: chemical genetic growth profiling, strain panel (AID 1159580);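 note: tested at 20 µM; growth read once vehicle control cultures reached saturation at 30 °C; lower values mean less growth of the strain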; conditions: S. cerevisiae deletion strains, growth OD, locus YBR021W, strain FUR4
The whole screen tested about 5,500 compounds, of which about 2,000 (36%) were called active. Inconclusive results (about 18%) are left out. Cut-off read from the data, not from the text of the source: active = normalized growth mostly below about 0.91 (no sharp cut-off); inconclusive = no clear call, values can overlap the other calls; inactive = mostly above about 0.92. Some of the results follow.
Mark one answer only. Choices: t (active), f (inactive)

Known results for molecules:
{"molecule": "COc1cc2c(cc1-c1cc3cc4ccoc4cc3oc1=O)OCO2", "category label": "t"}
{"molecule": "COc1cc(OC)c2c3c1C(=O)c1c(OC)cc(C)c4c(OC)cc(c-3c14)C(C)(C)C2=O", "category label": "f"}
{"molecule": "CC(CCC(=O)O)[C@H]1CCC2C3C[C@H](O)[C@@H]4C[C@H](O)CC[C@]4(C)C3CC[C@@]21C (stereo not given in full)", "category label": "f"}
{"molecule": "CC(C)CCCC(C)C1CCC2C3CC[C@H]4CCCC[C@]4(C)C3CC[C@]12C (stereo not given in full)", "category label": "f"}
{"molecule": "CC12CC3CC(C)(C1)CC(N)(C3)C2", "category label": "f"}

# outcome recorded in this test, key = c1ccc2c(c1)CN1CCCC1=N2 t

Which outcome was entered for the molecule COC(=O)c1c(C)cc(OC(=O)c2c(C)cc(O)c(C=O)c2O)c(C)c1O in this test? f

I would be grateful if you could indicate the recorded call for CC(CCC(=O)O)[C@H]1CCC2C3CC[C@@H]4C[C@H](O)CC[C@]4(C)C3C[C@H](O)[C@@]21C (stereo not given in full) . f

Test call for this molecule, please: COC(=O)CCC(C)[C@H]1CCC2C3C(C[C@H](O)[C@@]21C)[C@@]1(C)CC[C@@H](O)C[C@H]1C[C@H]3O (stereo not given in full) f

Check the results log: what was the call for CC1=C2[C@H]3OC(=O)[C@@H](C)[C@@H]3CC[C@@]2(C)C=CC1=O ? f
